Listed here: items and their measured T/C.
Test system: B6C3F1 mice, ip Sarcoma M5076, median survival T/C
assay.remarks: NCI In Vivo Anticancer Drug Screen. Data for tumor model Sarcoma M5076 (intraperitoneal) in B6C3F1 mice
applied.conditions: endpoint: median survival time; dose: 100.0 mg/kg/injection; schedule: Q04DX004 (ip); vehicle: saline with Tween-80; higher = longer survival
Inconclusive results and toxic doses are left out.

// solved cases for T/C follow
| molecule | T/C |
| --- | --- |
| NS(=O)(=O)OCCCCCCCOS(N)(=O)=O | 185 % of control |
| Clc1ccc(-c2noc(CN3CCCCC3)n2)cc1 | 96 % of control |
| CC1=CC(=NN=c2cc(C)n([O-])c(C)c2)C=C(C)[N+]1=O | 122 % of control |
| NC(=O)C1C=CN(Cc2ccccc2)C=C1 | 116 % of control |
| CCOC(=O)CC1(C)SCCN1C(=O)OCC (stereo not drawn) | 114 % of control |

Consider the additional molecule presented here.
Query block: Returns the measured T/C for the input molecule. Input: COc1ccccc1N=C1SCC(=O)N1Cc1ccco1
Result block: 122 % of control
